Numbers sourced from patent US20160143913A1.

# System: human colon tumor lines
# methodDescription: Cell growth inhibition assay, colon lines
# Type: cell-based
# testSettings: a subset of these colon cell lines (modest sensitivity), range over the lines, read-out: IC50 values, single agent
pIC50: −log10 of the molar value.
quantityMeasured: pIC50

Problem: Which pIC50 value is on record for Cn1ncc(Cl)c1-c1cc(C(=O)N[C@H](CN)Cc2cccc(F)c2)sc1Cl ?
Result: 5.30 to 6.30

* * *

# System: DLD1
# methodDescription: Cell growth inhibition assay (Cell Titer Glo), DLD1
# Assay type: cell-based
# testSettings: Homo sapiens, DLD-1, 72 h; DLD1 colon; KRAS_G13D; PIK3CA_E545K; single agent, 3 days, mean ± std
quantityMeasured: IC50

Problem: Which IC50 value is on record for Cn1ncc(Cl)c1-c1cc(C(=O)N[C@H](CN)Cc2cccc(F)c2)sc1Cl ?
Result: > 10 µM
